Experimental Protocol: high throughput permeability (HT-Permeability, log Pe)
Format: physicochemical
Test Conditions: PAMPA, pH 4, pH 4.0; Pe in cm/s; read-out: HT-Permeability logPe pH 4.0 (converted)
Property Name: Papp (×10⁻⁶ cm/s)

Lab book: Papp of CCCCCNC(=O)C[C@H](CCCCN)NC(=O)[C@@H](Cc1c[nH]c2ccccc12)N(C)C(=O)C[C@H](Cc1ccccc1)NC(=O)CC noted as 5.01

1. CCCCCNC(=O)C[C@H](CCCCN)NC(=O)[C@@H](Cc1c[nH]c2ccccc12)NC(=O)C[C@H](Cc1ccccc1)NC(C)=O
2. C[C@H]1OC(=O)C[C@H]1NC(=O)C[C@H](CCCCN)NC(=O)[C@@H](Cc1c[nH]c2ccccc12)NC(=O)C[C@H](Cc1ccccc1)NC(=O)C12CC3CC(CC(C3)C1)C2
3. C[C@H]1OC(=O)C[C@H]1NC(=O)C[C@H](CCCCN)NC(=O)[C@@H](Cc1cn(C)c2ccccc12)NC(=O)C[C@H](Cc1ccccc1)NC(=O)C12CC3CC(CC(C3)C1)C2
Sort the compounds on Papp; start with the lowest figure. I would appreciate it if you listed the labels in the requested order.
3, 2, 1

----------
Experimental Protocol: high throughput solubility (HT-Solubility)
Assay type: physicochemical
Test Conditions: pH 1, pH 1.0; read-out: HT-Solubility pH 1.0
Property Name: solubility (µg/mL)

The measured solubility associated with CCCC(=O)N[C@H](CC(=O)N[C@H](Cc1c[nH]c2ccccc12)C(=O)N[C@@H](CCCCN)CC(N)=O)Cc1ccccc1 [Compound 61] reads 115

1. CCCCCN(C)C(=O)C[C@H](CCCCN)NC(=O)[C@@H](Cc1c[nH]c2ccccc12)NC(=O)C[C@H](Cc1ccccc1)NC(=O)CCC [Compound 41]
2. CCCCN(C)C(=O)C[C@H](CCCCN)NC(=O)[C@@H](Cc1c[nH]c2ccccc12)NC(=O)C[C@H](Cc1ccccc1)NC(=O)CCC [Compound 42]
# return whichever of 1 and 2 has the smaller solubility # respond with the chosen item's label
2

1. CC(=O)N[C@H](CC(=O)N(C)[C@H](Cc1cn(C)c2ccccc12)C(=O)N[C@@H](CCCCN)CC(=O)N[C@@H]1CC(=O)O[C@@H]1C)Cc1ccccc1 [Compound 37]
2. C[C@@H](O)[C@@H](CC(N)=O)NC(=O)C[C@H](CCCCN)NC(=O)[C@@H](Cc1c[nH]c2ccccc12)NC(=O)C[C@H](Cc1ccccc1)NC(=O)C12CC3CC(CC(C3)C1)C2 [Compound 18]
Looking only at measured solubility, which entry is lower, 1 or 2 ? Your answer should be the label of the entry you select.
2

----------
Experimental Protocol: high throughput permeability (HT-Permeability, log Pe)
Format: physicochemical
Test Conditions: PAMPA, pH 4, pH 4.0; Pe in cm/s; read-out: HT-Permeability logPe pH 4.0 (converted)
Property Name: Papp (×10⁻⁶ cm/s)

a. CCN(CC)C(=O)C[C@@H](NC(=O)C[C@H](CCCCN)NC(=O)[C@@H](Cc1c[nH]c2ccccc12)NC(=O)C[C@H](Cc1ccccc1)NC(C)=O)C(C)C [Compound 22]
b. C[C@@H](O)[C@@H](CC(N)=O)NC(=O)C[C@H](CCCCN)NC(=O)[C@@H](Cc1c[nH]c2ccccc12)NC(=O)C[C@@H](N)Cc1ccccc1 [Compound 36]
Between item a and item b , which reported Papp is smaller? Your answer should be the label of the entry you select.
a

----------
Experimental Protocol: HT-logP o/w, high throughput assay based on artificial liquid membrane permeability
Format: physicochemical
Test Conditions: octanol/water, read-out: HT LogP ohw
Property Name: logP

These recorded examples may help you get a feel for the data.
Kindly note the recorded logP for CCCCCNC(=O)C[C@H](CCCCN)NC(=O)[C@@H](Cc1c[nH]c2ccccc12)N(C)C(=O)C[C@H](Cc1ccccc1)NC(=O)CC , which is 3.3

Given item CCCCCNC(=O)C[C@H](CCCCN)NC(=O)[C@@H](Cc1c[nH]c2ccccc12)NC(=O)C[C@H](Cc1ccccc1)NC(=O)CCC , the value recorded as its logP is 3.7

Record CC(=O)N[C@H](CC(=O)N[C@H](Cc1c[nH]c2ccccc12)C(=O)N[C@@H](CCCCN)CC(=O)N[C@H](CC(=O)N(C)CCc1ccccc1)C(C)C)Cc1ccccc1 . Reported logP: 3.3

The molecule CCCCCN(C)C(=O)C[C@H](CCCCN)NC(=O)[C@@H](Cc1c[nH]c2ccccc12)NC(=O)C[C@H](Cc1ccccc1)NC(=O)CCC showed logP equal to 3.6

# molecule CCCCN(C)C(=O)C[C@H](CCCCN)NC(=O)[C@@H](Cc1c[nH]c2ccccc12)NC(=O)C[C@H](Cc1ccccc1)NC(=O)CC ; its logP = 3

P. CCCCCCN(C)C(=O)C[C@H](CCCCN)NC(=O)[C@@H](Cc1c[nH]c2ccccc12)N(C)C(=O)C[C@H](Cc1ccccc1)NC(=O)CC
Q. CCC(=O)N[C@H](CC(=O)N[C@H](Cc1c[nH]c2ccccc12)C(=O)N[C@@H](CCCCN)CC(=O)NC1CCCC1)Cc1ccccc1
Looking at recorded values for logP, does P or Q come in lower? Answer by quoting the chosen item's label.
Q

----------
Experimental Protocol: high throughput solubility (HT-Solubility)
Assay type: physicochemical
Test Conditions: pH 1, pH 1.0; read-out: HT-Solubility pH 1.0
Property Name: solubility (µg/mL)

Form field solubility, entry CCCCCN(C)C(=O)C[C@H](CCCCN)NC(=O)[C@@H](Cc1c[nH]c2ccccc12)N(C)C(=O)C[C@H](Cc1ccccc1)NC(=O)CC : 132

CC(=O)N[C@H](CC(=O)N[C@H](Cc1c[nH]c2ccccc12)C(=O)N[C@@H](CCCCN)CC(N)=O)Cc1ccccc1 has a reported solubility of 110

For CCCCCNC(=O)C[C@H](CCCCN)NC(=O)[C@@H](Cc1c[nH]c2ccccc12)NC(=O)C[C@H](Cc1ccccc1)NC(C)=O the compound record lists solubility as 124

----------
Experimental Protocol: HT-logP o/w, high throughput assay based on artificial liquid membrane permeability
Format: physicochemical
Test Conditions: octanol/water, read-out: HT LogP ohw
Property Name: logP

// logP lookup, compound = CCCCCCN(C)C(=O)C[C@H](CCCCN)NC(=O)[C@@H](Cc1c[nH]c2ccccc12)N(Cc1ccccc1)C(=O)C[C@H](Cc1ccccc1)NC(=O)CC [Compound 68] , result: 5.5

// logP value for CCCCCCCCC(=O)N[C@H](CC(=O)N[C@H](Cc1c[nH]c2ccccc12)C(=O)N[C@@H](CCCCN)CC(=O)N[C@@H]1CC(=O)O[C@@H]1C)Cc1ccccc1 [Compound 11] : 3.9

Record summary for CCCCCN(C)C(=O)C[C@H](CCCCN)NC(=O)[C@@H](Cc1c[nH]c2ccccc12)N(Cc1ccccc1)C(=O)C[C@H](Cc1ccccc1)NC(=O)CC [Compound 66] : reported logP = 5.5

a. NCCCC[C@@H](CC(=O)NC1CCCC1)NC(=O)[C@@H](Cc1c[nH]c2ccccc12)NC(=O)C[C@H](Cc1ccccc1)NC(=O)C12CC3CC(CC(C3)C1)C2 [Compound 34]
b. CCCCCNC(=O)C[C@H](CCCCN)NC(=O)[C@@H](Cc1c[nH]c2ccccc12)NC(=O)C[C@H](Cc1ccccc1)NC(C)=O [Compound 44]
So which one has the bigger logP here, a or b ? # answer = label of selected item
a
(a: 5.2, b: 3.3)
